# assay.method.text: chemical genetic growth profiling, strain panel (AID 1159580);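 further: tested at 20 µM; growth read once vehicle control cultures reached saturation at 30 °C; 1 = growth at the plate median or of vehicle wells; lower values mean less growth of the strain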
# conditions.used: S. cerevisiae deletion strains, growth OD, locus YDL074C, strain BRE1, active compounds read low
In all, about 5,500 compounds went through this assay and about 2,000 (36%) were called active. Not shown: some 18% with an inconclusive outcome. The list shows a part of the results.
Mark 1 only when normalized growth stays strictly below 1. Values equal to the cut-off are -1.

Does `CC(C)(Sc1cc(C(C)(C)C)c(O)c(C(C)(C)C)c1)Sc1cc(C(C)(C)C)c(O)c(C(C)(C)C)c1` have normalized growth strictly under 1?
-1

Does CC(=O)NC(C(=O)O)C(C)(C)SN=O (centres undefined) have normalized growth strictly under 1?
-1

Does C#C[C@]1(O)CCC2C3CCC4=C(CCC(=O)C4)C3CC[C@@]21C (some centres undefined) have normalized growth strictly under 1?
-1

Does C[C@@H]1CC[C@H]2[C@@H](C)C(O)O[C@@H]3O[C@@]4(C)CC[C@@H]1[C@]32OO4 (some centres undefined) have normalized growth strictly under 1?
1

Does `Cc1cc(C(C)(C)C)c(O)c(C(C)(C)C)c1` have normalized growth strictly under 1?
1
